- experiment.notes: solvent given as SMILES
- particulars: in Cc1ccccc1
property.label: emission maximum (nm)
Please give a number only; it is taken to be in nm.

Consider the worked cases shown below.
compound=c1cc2c3c(c1)-c1cccc4cccc(c14)B3c1cccc3cccc-2c13 property_label="emission maximum" quantitative_readout=491
compound="CCCCC1(c2ccccc2)Nc2c(-c3ccc(N(c4ccccc4)c4ccccc4)cc3)ccc(-c3ccc(N(c4ccccc4)c4ccccc4)cc3)c2N=C1c1ccccc1 (stereo not given)" property_label="emission maximum" quantitative_readout=533
compound=N#Cc1cc(-n2c3ccccc3c3ccccc32)c(-n2c3ccccc3c3ccccc32)cc1C#N property_label="emission maximum" quantitative_readout=473

Prompt: Field request: emission maximum | item: CC1(C)c2ccccc2N(c2ccc(C(=O)c3cc(C(=O)c4ccc(N5c6ccccc6C(C)(C)c6ccccc65)cc4)cc(C(=O)c4ccc(N5c6ccccc6C(C)(C)c6ccccc65)cc4)c3)cc2)c2ccccc21
Completion: 530

Prompt: Field request: emission maximum | item: c1ccc2c(c1)CCc1ccccc1N2c1c2ccccc2cc2ccccc12
Completion: 507

---

- experiment.notes: solvent given as SMILES
- particulars: in CO
With a cut-off of 400 nm, any emission maximum strictly below it is called Yes; any emission maximum meeting it or above is called No.

Here's what some known entries look like.
compound=c1ccc2cc3cc(-c4cc(-c5nccs5)nc(-c5nccs5)c4)ccc3cc2c1 class_label=Yes
compound="COC(=O)C(Cc1ccc2oc(-c3ccncc3)nc2c1)NC(=O)OC(C)(C)C (stereo not drawn)" class_label=Yes
compound=O=Cc1c(O)c(-c2nc3ccccc3s2)cc2ccccc12 class_label=No
compound=Nc1cccc2cccc(N)c12 class_label=No

Prompt: Is emission maximum of CC1=C2C=CC(C)=[N+]2[B-](F)(F)n2cccc21 strictly below 400 nm?
Completion: No

Prompt: Dear reviewer, please state whether COc1ccc2n1[B-](F)(F)[N+]1=C(SC#N)C=CC1=C2c1ccccc1 has emission maximum strictly beneath 400 nm.
Completion: No

Prompt: Find out if reported emission maximum for CCC1(CC)c2cc(-c3ccc(-c4ccc5c(c4)C(CC)(CC)c4cc(C(C)(C)C)ccc4-5)cc3)ccc2-c2ccc(C(C)(C)C)cc21 is less than 400 nm
Completion: Yes

Prompt: In plain terms, does CCc1c(C)[nH]c(C2=[N+]3C(=C(C)c4c(C)c(CC)c(C)n4[B-]3(F)F)c3ccccc32)c1C come in under 400 nm for emission maximum?
Completion: No

Prompt: Is it true that emission maximum reported for Fc1ccc(-c2nc3n(c2-c2ccncc2)CCS3)cc1 is less than 400 nm?
Completion: No

Prompt: Lab log: compare recorded emission maximum with 400 nm; is it strictly lower for c1ccc(N(c2ccccc2)c2ccc(-c3cnc(-c4ccc(N(c5ccccc5)c5ccccc5)cc4)s3)cc2)cc1 ?
Completion: No

Prompt: Bench note: check whether COc1cc(N(c2ccc(C=C(C#N)C#N)c(OC)c2)c2ccc(C=C(C#N)C#N)c(OC)c2)ccc1C=C(C#N)C#N shows emission maximum below 400 nm
Completion: No

Prompt: A record lists O=C(O)c1ccc(C2=C(/C=C/c3[se]c4ccccc4[n+]3CCCCS(=O)(=O)[O-])CCC/C2=C\C=C2/[Se]c3ccccc3N2CCCCS(=O)(=O)[O-])cc1 . Is its emission maximum below 400 nm?
Completion: No

---

Each entry below carries its recorded emission maximum.
- experiment.notes: solvent given as SMILES
- particulars: in C1CCOC1
Reply with just the number (in nm).

compound=O=CC1=C(c2ccc(-c3cccs3)s2)CC1 quantitative_readout=470

Prompt: Given N#Cc1c(N2CCCCC2)cc(-c2ccc(Br)s2)c2c1CCc1ccccc1-2 , state its recorded emission maximum.
Completion: 493

Prompt: Field request: emission maximum | item: F[B-]1(F)Oc2c(-c3cccc4c3O[B-](F)(F)[n+]3c(-c5ccccc5)c(-c5ccccc5)n(-c5ccc(C(F)(F)F)cc5)c3-4)cccc2-c2n(-c3ccc(C(F)(F)F)cc3)c(-c3ccccc3)c(-c3ccccc3)[n+]21
Completion: 399

Prompt: Can you share its emission maximum? I mean this compound: CN(C)c1ccc(-c2ncnc3ccccc23)cc1
Completion: 483

Prompt: Quick one: emission maximum of COc1ccc2c(c1)CCc1c-2nc(N)c(C#N)c1-c1ccc(Br)cc1 ?
Completion: 403

Prompt: // query emission maximum value for entry CCCCCCCCN1c2ccc(C#Cc3ccc(C(F)(F)F)cc3)cc2Sc2cc(C=O)ccc21
Completion: 512

Prompt: GET /values?readout=emission maximum&item= CCCCCCc1cc2c(s1)-c1sc(CCCCCC)cc1P(c1ccccc1)(c1ccccc1)=[O+][B-]2(c1c(C)cc(C)cc1C)c1c(C)cc(C)cc1C
Completion: 536

Prompt: What emission maximum value was documented for this compound, CCCCn1c2ccc(C#Cc3cccs3)cc2c2c1c1c3ccc(C#Cc4cccs4)cc3n(CCCC)c1c1c3ccc(C#Cc4cccs4)cc3n(CCCC)c21 ?
Completion: 430

Prompt: So what does the record say about emission maximum for CCCCC1(CCCC)c2cc(C#Cc3ccc(C=C4c5ccccc5-c5ccccc54)cc3)ccc2-c2ccc(C#Cc3ccc(C=C4c5ccccc5-c5ccccc54)cc3)cc21 ?
Completion: 406

Prompt: Item under review: C(=C1c2ccccc2CCc2ccccc21)c1ccc(C=C2c3ccccc3CCc3ccccc32)cc1 . Reported emission maximum?
Completion: 406

Prompt: # query: emission maximum of entry Cc1cc(C)c([B-]2(c3c(C)cc(C)cc3C)[O+]=P(c3ccccc3)(c3ccccc3)c3ccsc3-c3sccc32)c(C)c1
Completion: 429

Prompt: Look at this compound and give its reported emission maximum. CCOC(=O)C1CC(c2c(C#N)c(C)nn2-c2ccccc2)=CN1c1ccc(Br)cc1 (stereo not drawn)
Completion: 480

Prompt: Endpoint output: emission maximum of CC(C)(C)c1ccc(-c2c(-c3cccc(N(c4ccccc4)c4ccccc4)c3)c(C#N)c(-c3cccc(N(c4ccccc4)c4ccccc4)c3)c(-c3ccc(C(C)(C)C)cc3)c2-c2ccc(C(C)(C)C)cc2)cc1 . Value?
Completion: 448

Prompt: Which emission maximum reading was recorded for the compound CN(C)c1ccc(-c2nc3c(c4c2-c2ccccc2CC4)-c2ccccc2CC3)cc1 ?
Completion: 452

---

Quick reference for emission maximum among some compounds
- experiment.notes: solvent given as SMILES
- particulars: in CC1CCCCC1
Give the quantity in nm, number only.

Study these solved cases before continuing.
compound=CCN(CC)c1ccc2cc(-c3nc4ccccc4s3)c(=O)oc2c1 units=nm quantitative_readout=462
compound="COC(=O)C(NC(=O)OC(C)(C)C)c1ccc2oc(-c3ccc(F)cc3)nc2c1 (stereo unspecified)" units=nm quantitative_readout=320
compound=CCCOc1ccc(/C=C/C=C/C=C/c2ccc([N+](=O)[O-])cc2)cc1 units=nm quantitative_readout=488
compound=CCOc1ccc(/C=C/C=C/C=C/c2ccc([N+](=O)[O-])cc2)cc1 units=nm quantitative_readout=488
compound="COC(=O)C(Cc1ccc2oc(-c3ccncc3)nc2c1)NC(=O)OC(C)(C)C (stereo unspecified)" units=nm quantitative_readout=356.74

Now for the compound whose emission maximum we want.
Prompt: Could you tell me which emission maximum is on file for COC(=O)C(NC(=O)OC(C)(C)C)c1ccc2oc(-c3cc(OC)c(OC)cc3OC)nc2c1 (stereo unspecified) ?
Completion: 357

---

- experiment.notes: solvent given as SMILES
- particulars: in CC#N
property.label: emission maximum (nm)
State just the number; it will be interpreted in nm.

Reference set, count: 5
compound=CC(=O)O[B-]1(OC(C)=O)OC(/C=C/c2cccc3ccccc23)=CC(/C=C/c2cccc3ccccc23)=[O+]1 units=nm quantitative_readout=569
compound=C=CCOC(=O)C(C#N)=C1C=C(/C=C/c2ccc(N(C)C)cc2)OC(/C=C/c2ccc(N(C)C)cc2)=C1 units=nm quantitative_readout=624
compound="CCC1=C(C)C2=Cc3c4ccccc4c4n3[B-](c3ccc5ccc6cccc7ccc3c5c67)(Oc3ccccc3-4)[N+]2=C1C (stereo not drawn)" units=nm quantitative_readout=635
compound=CCc1c(C)[nH]c(C2=[N+]3C(=C(C)c4c(C)c(CC)c(C)n4[B-]3(F)F)c3ccccc32)c1C units=nm quantitative_readout=652
compound=O=c1oc2c(ccc3ccccc32)nc1-c1ccccc1 units=nm quantitative_readout=490

Prompt: Would you mind telling me what emission maximum value was observed for COc1cc(N(c2ccccc2)c2ccc(C=C(C#N)C#N)c(OC)c2)ccc1C=C(C#N)C#N ?
Completion: 571

Prompt: What does the record list as emission maximum for CCOc1cc2c(cc1/C=C/C(=C(C#N)C#N)c1ccccc1)c1ccccc1n2CC ?
Completion: 569

Prompt: So what does the record say about emission maximum for CCCCCCCCCCCCC(CCCCCCCCCC)Cn1c2cc(/C=C/C=C/c3nc4ccccc4s3)c3cccc4c5cccc6c(/C=C/C=C/c7nc8ccccc8s7)cc1c(c65)c2c34 (stereo not drawn) ?
Completion: 608

---

- experiment.notes: solvent given as SMILES
- particulars: in ClCCl
Measured emission maximum values are reported for all entries that follow.
Give the number; nm is assumed, so skip it.

Recorded emission maximum, per entry:
compound=CCCCCCCCCCCCN1C(=O)c2c(c3ccc4cc(-c5ccc(C=O)cc5)c(OC)cc4c3c3c2ccc2cc(-c4ccc(C=O)cc4)c(OC)cc23)C1=O quantitative_readout=523
compound="Cc1n[nH]c2c1C(c1ccc([N+](=O)[O-])cc1)C(C#N)=C(N)O2 (configuration not stated)" quantitative_readout=402
compound=CC(C)(C)c1ccc(-n2c(-c3ccc(-c4ccc(N(c5ccccc5)c5ccccc5)cc4)cc3)nc3c4ccccc4c4ccccc4c32)cc1 quantitative_readout=442
compound=Cc1cc2c3ccccc3[nH]c2c2[nH]c3ccccc3c12 quantitative_readout=371
compound=F[B-]1(F)n2c(Oc3ccccc3)c(Cl)c3c2C(=C2C(Br)=C(Cl)C(Oc4ccccc4)=[N+]21)Oc1ccccc1-3 quantitative_readout=492

Prompt: Looking for the measured emission maximum of c1ccc(-c2nc(-c3ccccc3)nc(-c3cc(-n4c5ccccc5c5ccccc54)c(-n4c5ccccc5c5ncccc54)c(-n4c5ccccc5c5ccccc54)c3)n2)cc1 , can you help?
Completion: 507.14

Prompt: Form field: reported emission maximum of C(#Cc1ccc(-n2c3ccccc3c3ccccc32)cc1)c1ccccc1
Completion: 390

Prompt: What emission maximum value was documented for this compound, F[B-]1(F)Oc2ccccc2-c2c3c(c4c([n+]21)CCc1ccccc1-4)CCc1ccccc1-3 ?
Completion: 442

Prompt: Given the compound CCOC(=O)/N=c1/oc2cc(OC)ccc2cc1C#N , what is its reported emission maximum?
Completion: 434

Prompt: Could you tell me which emission maximum is on file for O=S1(=O)c2ccccc2-c2c1c1ccccc1p2-c1ccccc1 (configuration not stated) ?
Completion: 453

Prompt: GET /values?readout=emission maximum&item= CC(C)(C)c1ccc2c(c1)c1cc(C(C)(C)C)ccc1n2-c1ccc(C#Cc2ccc3c4ccc(C#Cc5ccc(C=C(C#N)C#N)cc5)cc4n(-c4ccc(C(F)(F)F)cc4)c3c2)cc1
Completion: 454

Prompt: Any idea what emission maximum was measured for CC(C)(C)c1ccc(C2=C(Br)C3=C(c4ccccc4)c4c(Br)c(-c5ccc(C(C)(C)C)cc5)c(-c5ccc(C(C)(C)C)cc5)n4[B-](F)(F)[N+]3=C2c2ccc(C(C)(C)C)cc2)cc1 ?
Completion: 619

Prompt: Would you kindly share the measured emission maximum for c1ccc(-c2cn3ccc[n+]3[n-]2)cc1 ?
Completion: 419

Prompt: Please give the measured emission maximum for this compound: CCN(CC)c1ccc2c(c1)oc(=O)c1c(C)nc3c(cnn3-c3ccccc3)c12
Completion: 439

Prompt: Field request: emission maximum | item: CN(C)c1ccc(-c2nc3c(c4c2-c2ccccc2CC4)-c2ccccc2CC3)cc1
Completion: 449

Prompt: // query emission maximum value for entry CN(C)c1ccc(-c2nc3c(c4c2-c2ccc(C#N)cc2CC4)-c2ccc(C#N)cc2CC3)cc1
Completion: 482

Prompt: Look up emission maximum for this compound: CN(C)c1ccc(C#Cc2nc(-c3ccccc3)nc3ccccc23)cc1
Completion: 551
